Assay Info: Phase 1 Study S-(1)-01 plasma pharmacokinetics (weekly x3, 28-day cycle)
Type: in vivo, human
Measurement Setup: human, plasma, intravenous, S-(1)-01 study, all dose groups; read-out: Plasma t1/2 values, range over dose groups
Parameter: half-life

Report half-life, nothing else, for this compound: C=C[C@H]1O[C@H]2C[C@H]3OC[C@@]3(OC(C)=O)[C@H]3[C@H](OC(=O)c4ccccc4)[C@]4(C(C)(C)O)CC(OC(=O)[C@H](O)C(CC(C)C)NC(=O)OC(C)(C)C)C(C)=C4[C@H](OC(C)=O)[C@H](O1)[C@]23C (stereo partly shown) 3.45 to 8.4 h

----------
Assay Info: Phase 1 Study S-(1)-01 plasma pharmacokinetics (weekly x3, 28-day cycle)
Assay type: in vivo, human
Measurement Setup: human, plasma, iv, 56 mg/m2; 56 mg/m^2 i.v., first dose, 50:50 Cremophor EL-P/ethanol formulation; read-out: AUC0-24
Parameter: AUC(0-t)

Report AUC(0-t), nothing else, for this molecule: C=C[C@H]1O[C@H]2C[C@H]3OC[C@@]3(OC(C)=O)[C@H]3[C@H](OC(=O)c4ccccc4)[C@]4(C(C)(C)O)CC(OC(=O)[C@H](O)C(CC(C)C)NC(=O)OC(C)(C)C)C(C)=C4[C@H](OC(C)=O)[C@H](O1)[C@]23C (stereo partly shown) 2070 ng·h/mL
